# TGT: Recombinant human BRD4 containing dual bromodomains (BRD4-BD12 (1-477)) (Homo sapiens)
# Construct: Recombinant human BRD4 containing dual bromodomains (BRD4-BD12 (1-477))
# MEASUREMENT_DESCRIPTION: BRD4 Alphascreen binding assay
pIC50: −log10 of the molar value.
pIC50 listing for selected compounds.

The compound listed as Cc1noc(C)c1-c1cnc2c(c1)c(-c1ccc(C(=O)O)cc1C#CC1CC1)cn2[C@@H](C)c1ccccn1 [P-0178] has a reported pIC50 of 3.00 to 5.10

The compound listed as Cc1noc(C)c1-c1cnc2c(c1)c(-c1ccc(C(=O)O)cc1OC(F)(F)F)cn2-c1cnc(C2CC2)nc1 [P-0384] has a reported pIC50 of 5.10 to 6.00

The compound listed as COc1cc(C(=O)O)ncc1-c1cn(-c2ccncc2Cl)c2ncc(-c3c(C)noc3C)cc12 [P-0324] has a reported pIC50 of 5.10 to 6.00

The compound listed as CCOc1cc(C(=O)O)cc(OCC)c1-n1cc(C2=CCC(F)(F)CC2)c2ncc(-c3c(C)noc3C)cc21 [P-0208] has a reported pIC50 of 5.10 to 6.00

* * *

# TGT: Recombinant human EP300 containing the bromodomain (EP300-BD (1040-1161)) (Homo sapiens)
# Construct: Recombinant human EP300 bromodomain (EP300-BD (1040-1161))
# MEASUREMENT_DESCRIPTION: EP300 Alphascreen binding assay
pIC50: −log10 of the molar value.
pIC50 listing for selected compounds.

The compound listed as `Cc1cc(C(=O)O)cnc1-n1cc(CC2CCC2)c2ncc(-c3c(C)noc3C)cc21` has a reported pIC50 of 6.00 to 10.00

The compound listed as `Cc1noc(C)c1-c1cnc2c(Cc3cccc(OCc4ccccc4)c3)cn(-c3c(Cl)cc(C(=O)O)cc3Cl)c2c1` has a reported pIC50 of 6.00 to 10.00

The compound listed as Cc1noc(C)c1-c1cnc2c(c1)c(-c1ccc(C(F)(F)C(=O)O)cc1)cn2C(c1ccccn1)C1CCCC1 (stereo not shown) has a reported pIC50 of 6.00 to 10.00

* * *

# TGT: Recombinant human EP300 containing the bromodomain (EP300-BD (1040-1161)) (Homo sapiens, UniProt Q09472)
# Construct: Recombinant human EP300 bromodomain (EP300-BD (1040-1161))
# Sequence (Q09472 1040-1161): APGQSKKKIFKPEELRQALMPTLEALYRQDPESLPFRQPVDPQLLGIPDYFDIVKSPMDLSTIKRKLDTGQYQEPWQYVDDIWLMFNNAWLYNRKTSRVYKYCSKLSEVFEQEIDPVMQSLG
# MEASUREMENT_DESCRIPTION: EP300 Alphascreen binding assay
READOUT: IC50

See these solved cases before continuing.
{"COMPOUND": "Cc1noc(C)c1-c1cnc2c(c1)c(-c1ccc(C(=O)O)cc1OC(F)(F)F)cn2-c1cnc(N)nc1", "VALUE_REPORTED": "0.1 to 1000 nM"}
{"COMPOUND": "Cc1noc(C)c1-c1cnc2c(c1)c(-c1c(Cl)cc(C(=O)O)cc1OC(C)C)cn2C1(C)CCOCC1", "VALUE_REPORTED": "0.1 to 1000 nM"}
{"COMPOUND": "CCOc1cc(C(=O)O)cc(OCC)c1-n1cc(-c2ccnc(F)c2)c2ncc(-c3c(C)noc3C)cc21", "VALUE_REPORTED": "0.1 to 1000 nM"}
{"COMPOUND": "Cc1noc(C)c1-c1cnc2c(c1)c(-c1ccnc(C(=O)O)c1)cn2CC1CC1", "VALUE_REPORTED": "0.1 to 1000 nM"}

The compound listed as `CCOc1nc(C(=O)O)ccc1-c1cn(C2(C)CCOCC2)c2ncc(-c3c(C)noc3C)cc12` has a reported IC50 of 0.1 to 1000 nM

The compound listed as `COc1ccc(-n2cc(CC3CCC3)c3ncc(-c4c(C)noc4C)cc32)cn1` has a reported IC50 of 1000 to 8000 nM

The compound listed as `COc1cc(C(=O)O)ncc1-c1cn(C2CCOCC2)c2ncc(-c3c(C)noc3C)cc12` has a reported IC50 of 0.1 to 1000 nM

The compound listed as `COc1cc(C(=O)O)cc(OCC(F)(F)F)c1-c1cn([C@@H](C)c2ccccn2)c2ncc(-c3c(C)noc3C)cc12` has a reported IC50 of 0.1 to 1000 nM

The compound listed as `Cc1noc(C)c1-c1cnc2c(c1)c(-c1ccc(C(=O)O)cc1OC(C)C)cn2-c1ccccc1` has a reported IC50 of 0.1 to 1000 nM

The compound listed as `Cc1noc(C)c1-c1cnc2c(c1)c(-c1ccc(C(=O)O)cc1OC(F)(F)F)cn2-c1ccncc1F` has a reported IC50 of 0.1 to 1000 nM

The compound listed as `COc1cc(C(=O)O)cc(C)c1-c1cn(-c2ccccc2)c2ncc(-c3c(C)noc3C)cc12` has a reported IC50 of 0.1 to 1000 nM

The compound listed as `CCOc1nc(C(=O)O)c(Cl)cc1-c1cn([C@H]2CCOC2)c2ncc(-c3c(C)noc3C)cc12` has a reported IC50 of 0.1 to 1000 nM
